Every entry's value here was drawn from paper PMC9380671.

Here, each record is paired with measured VEGFR-2 % Inhibition data.
target: VEGFR-2 (Homo sapiens, UniProt P35968); construct: Western blot technique was considered for EGFR and VEGFR-2 properties determination; endogenous in cells; host or cells: MCF7 (breast cancer cell line); format: cell-based; conditions: western blot, MCF7, compound at its MTT IC50
Sequence (P35968 20-1356): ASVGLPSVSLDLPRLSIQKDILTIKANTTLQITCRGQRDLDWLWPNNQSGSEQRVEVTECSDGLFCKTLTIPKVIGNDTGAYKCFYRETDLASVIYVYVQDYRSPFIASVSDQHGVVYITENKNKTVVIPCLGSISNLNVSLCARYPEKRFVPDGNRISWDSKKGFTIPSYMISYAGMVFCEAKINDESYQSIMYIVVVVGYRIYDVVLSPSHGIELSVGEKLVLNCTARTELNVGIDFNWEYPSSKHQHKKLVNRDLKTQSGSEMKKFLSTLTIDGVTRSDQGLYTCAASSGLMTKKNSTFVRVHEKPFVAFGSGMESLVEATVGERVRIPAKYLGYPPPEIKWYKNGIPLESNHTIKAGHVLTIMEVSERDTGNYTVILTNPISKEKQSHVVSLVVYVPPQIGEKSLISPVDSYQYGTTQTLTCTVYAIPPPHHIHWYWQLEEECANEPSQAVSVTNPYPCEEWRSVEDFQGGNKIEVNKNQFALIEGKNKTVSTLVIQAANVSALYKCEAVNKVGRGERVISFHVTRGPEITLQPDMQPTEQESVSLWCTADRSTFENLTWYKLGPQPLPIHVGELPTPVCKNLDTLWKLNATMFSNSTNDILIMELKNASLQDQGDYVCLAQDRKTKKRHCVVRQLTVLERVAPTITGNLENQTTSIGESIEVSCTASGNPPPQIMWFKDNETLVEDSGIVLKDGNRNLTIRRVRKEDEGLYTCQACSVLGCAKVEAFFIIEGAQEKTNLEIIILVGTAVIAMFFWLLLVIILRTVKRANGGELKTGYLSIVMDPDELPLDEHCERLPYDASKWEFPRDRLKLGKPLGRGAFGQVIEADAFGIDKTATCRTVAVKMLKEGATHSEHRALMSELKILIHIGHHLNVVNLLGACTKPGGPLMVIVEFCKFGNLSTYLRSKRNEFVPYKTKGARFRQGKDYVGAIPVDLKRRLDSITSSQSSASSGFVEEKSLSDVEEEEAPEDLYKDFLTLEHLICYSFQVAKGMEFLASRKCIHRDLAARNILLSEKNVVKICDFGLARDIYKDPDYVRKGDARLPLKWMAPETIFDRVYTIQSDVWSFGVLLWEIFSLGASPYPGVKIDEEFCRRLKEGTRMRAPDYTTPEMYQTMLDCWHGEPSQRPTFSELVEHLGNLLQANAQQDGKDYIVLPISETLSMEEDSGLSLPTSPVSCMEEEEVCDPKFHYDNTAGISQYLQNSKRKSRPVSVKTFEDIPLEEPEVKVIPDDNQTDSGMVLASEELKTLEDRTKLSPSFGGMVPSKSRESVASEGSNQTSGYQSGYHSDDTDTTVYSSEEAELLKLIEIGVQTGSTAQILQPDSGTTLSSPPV
metric: VEGFR-2 % Inhibition (%)

[[record]]
compound = "COc1ccc(/C=C2\\CN(S(C)(=O)=O)CC3(C2=O)C(c2ccc(OC)c(OC)c2)CN(C)C32C(=O)Nc3ccccc32)cc1OC (stereo not drawn)"
unit_of_measurement = "%"
val = 64.2

[[record]]
compound = "CCS(=O)(=O)N1C/C(=C\\c2ccccc2)C(=O)C2(C1)C(c1ccccc1)CN(C)C21C(=O)Nc2ccccc21 (stereo not drawn)"
unit_of_measurement = "%"
val = 63.8

[[record]]
compound = "CN1CC(c2ccccc2)C2(CN(S(C)(=O)=O)C/C(=C\\c3ccccc3)C2=O)C12C(=O)Nc1ccccc12 (stereo not drawn)"
unit_of_measurement = "%"
val = 60.9

[[record]]
compound = "CN1CC(c2ccccc2)C2(CN(S(C)(=O)=O)C/C(=C\\c3ccccc3)C2=O)C12C(=O)Nc1ccc(Cl)cc12 (stereo not drawn)"
unit_of_measurement = "%"
val = 64.2

[[record]]
compound = "CN1CC(c2ccc(Cl)cc2)C2(CN(S(C)(=O)=O)C/C(=C\\c3ccc(Cl)cc3)C2=O)C12C(=O)Nc1ccc(Cl)cc12 (stereo not drawn)"
unit_of_measurement = "%"
val = 57.9

[[record]]
compound = "CN1CC(c2ccc(F)cc2)C2(CN(S(C)(=O)=O)C/C(=C\\c3ccc(F)cc3)C2=O)C12C(=O)Nc1ccccc12 (stereo not drawn)"
unit_of_measurement = "%"
val = 64.5

[[record]]
compound = "CCS(=O)(=O)N1C/C(=C\\c2ccc(F)cc2)C(=O)C2(C1)C(c1ccc(F)cc1)CN(C)C21C(=O)Nc2ccc(Cl)cc21 (stereo not drawn)"
unit_of_measurement = "%"
val = 66.2

[[record]]
compound = "CN1CC(c2ccc(F)cc2)C2(CN(S(C)(=O)=O)C/C(=C\\c3ccc(F)cc3)C2=O)C12C(=O)Nc1ccc(Cl)cc12 (stereo not drawn)"
unit_of_measurement = "%"
val = 64.7

[[record]]
compound = "CN1CC(c2ccc(Br)cc2)C2(CN(S(C)(=O)=O)C/C(=C\\c3ccc(Br)cc3)C2=O)C12C(=O)Nc1ccccc12 (stereo not drawn)"
unit_of_measurement = "%"
val = 61.3

[[record]]
compound = "COc1ccc(/C=C2\\CN(S(C)(=O)=O)CC3(C2=O)C(c2ccc(OC)c(OC)c2)CN(C)C32C(=O)Nc3ccc(Cl)cc32)cc1OC (stereo not drawn)"
unit_of_measurement = "%"
val = 61.8

[[record]]
compound = "CCS(=O)(=O)N1C/C(=C\\c2ccc(Cl)cc2)C(=O)C2(C1)C(c1ccc(Cl)cc1)CN(C)C21C(=O)Nc2ccc(Cl)cc21 (stereo not drawn)"
unit_of_measurement = "%"
val = 60.2

[[record]]
compound = "CCS(=O)(=O)N1C/C(=C\\c2ccc(Cl)cc2)C(=O)C2(C1)C(c1ccc(Cl)cc1)CN(C)C21C(=O)Nc2ccccc21 (stereo not drawn)"
unit_of_measurement = "%"
val = 66.2

[[record]]
compound = "CCS(=O)(=O)N1C/C(=C\\c2ccc(F)cc2)C(=O)C2(C1)C(c1ccc(F)cc1)CN(C)C21C(=O)Nc2ccccc21 (stereo not drawn)"
unit_of_measurement = "%"
val = 63.7

[[record]]
compound = "CCS(=O)(=O)N1C/C(=C\\c2ccccc2)C(=O)C2(C1)C(c1ccccc1)CN(C)C21C(=O)Nc2ccc(Cl)cc21 (stereo not drawn)"
unit_of_measurement = "%"
val = 63.8

[[record]]
compound = "CN1CC(c2ccc(Cl)cc2)C2(CN(S(C)(=O)=O)C/C(=C\\c3ccc(Cl)cc3)C2=O)C12C(=O)Nc1ccccc12 (stereo not drawn)"
unit_of_measurement = "%"
val = 64.2

